assayed_system: Gal(b1-4)Glc6S
experiment_description: glycan array binding signal (z-score within array); higher = stronger binding
condition_notes: glycan notation: IUPAC condensed, linker removed
Many of the other results were omitted from the sample, so the strongest signals are more common in it than they were.
Consider the following binders; for each one, report its glycan array binding signal (z-score).
Give bare numbers.

Here is how some binders turned out for glycan array binding signal (z-score).
>>> experimental_value("SUN4 (Saccharomyces cerevisiae), P53616 (protein) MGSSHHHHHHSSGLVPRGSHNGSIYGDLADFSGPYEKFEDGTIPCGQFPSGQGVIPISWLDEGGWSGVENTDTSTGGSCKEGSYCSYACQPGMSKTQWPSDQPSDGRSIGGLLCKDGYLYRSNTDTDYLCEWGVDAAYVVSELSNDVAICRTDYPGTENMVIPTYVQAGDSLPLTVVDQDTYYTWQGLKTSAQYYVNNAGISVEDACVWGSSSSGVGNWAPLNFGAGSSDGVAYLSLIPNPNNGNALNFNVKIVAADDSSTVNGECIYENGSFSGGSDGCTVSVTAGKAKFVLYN")
-0.03
>>> experimental_value("DrGRIFIN (Danio rerio), Q6DGJ1 (protein) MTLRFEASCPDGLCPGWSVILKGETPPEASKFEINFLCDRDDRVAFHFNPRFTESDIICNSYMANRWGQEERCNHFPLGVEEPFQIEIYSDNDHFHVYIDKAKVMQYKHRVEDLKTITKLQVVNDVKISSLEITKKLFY")
-0.201

Need glycan array binding signal (z-score), item CTLY 1 (Homo sapiens), Q6ZS10 (protein) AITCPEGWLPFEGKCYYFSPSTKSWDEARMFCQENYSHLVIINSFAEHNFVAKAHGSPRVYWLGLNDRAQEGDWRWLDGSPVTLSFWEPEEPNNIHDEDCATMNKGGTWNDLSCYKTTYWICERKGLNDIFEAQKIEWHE
-0.248
